target: Human MTAP (Homo sapiens, UniProt Q13126); construct: six-histidine tag (His6) (N); made in house; host or cells: E. coli BL21 DE3; test: MTAP substrate assay, coupled spectrophotometric (adenine, xanthine oxidase); type: biochemical; settings: compound 10 uM, 2 nM MTAP, relative to MTA at 10 uM
Sequence (Q13126 whole entry): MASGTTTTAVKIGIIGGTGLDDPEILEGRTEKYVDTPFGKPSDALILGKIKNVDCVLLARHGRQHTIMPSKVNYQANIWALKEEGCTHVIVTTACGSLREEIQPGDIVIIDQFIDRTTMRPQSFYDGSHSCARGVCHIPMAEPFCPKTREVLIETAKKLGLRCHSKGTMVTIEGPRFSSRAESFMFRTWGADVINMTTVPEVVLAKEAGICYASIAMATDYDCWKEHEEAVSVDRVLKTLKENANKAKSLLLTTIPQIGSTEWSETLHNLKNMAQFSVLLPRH
This section presents compounds with their documented MT-A—10: initial velocity as a percentage of the initial velocity with MTA as substrate values.
measured parameter: MT-A—10: initial velocity as a percentage of the initial velocity with MTA as substrate

{"compound": "CC(O)C(C)SC[C@H]1O[C@@H](n2cnc3c(N)ncnc32)[C@H](O)[C@@H]1O (some centres unmarked)", "endpoint result": "18%"}
{"compound": "Nc1ccccc1SC[C@H]1O[C@@H](n2cnc3c(N)ncnc32)[C@H](O)[C@@H]1O", "endpoint result": "3%"}
{"compound": "Nc1ncnc2c1ncn2[C@@H]1O[C@H](CSc2cccc(C(F)(F)F)c2)[C@@H](O)[C@H]1O", "endpoint result": "17%"}
{"compound": "Nc1ncnc2c1ncn2[C@@H]1O[C@H](CSc2ccc3ccccc3c2)[C@@H](O)[C@H]1O", "endpoint result": "29%"}
{"compound": "Nc1ncnc2c1ncn2[C@@H]1O[C@H](CSc2ncccn2)[C@@H](O)[C@H]1O", "endpoint result": "54%"}
{"compound": "Cc1cccc(C)c1SC[C@H]1O[C@@H](n2cnc3c(N)ncnc32)[C@H](O)[C@@H]1O", "endpoint result": "3%"}
{"compound": "Nc1ncnc2c1ncn2[C@@H]1O[C@H](CSCC(=O)Nc2ccccc2)[C@@H](O)[C@H]1O", "endpoint result": "5%"}
{"compound": "Nc1ncnc2c1ncn2[C@@H]1O[C@H](CSc2cccc(C(=O)O)c2)[C@@H](O)[C@H]1O", "endpoint result": "3%"}
{"compound": "Nc1ncnc2c1ncn2[C@@H]1O[C@H](CSc2cccc(Cl)c2)[C@@H](O)[C@H]1O", "endpoint result": "20%"}
{"compound": "CCCCOC(=O)CCSC[C@H]1O[C@@H](n2cnc3c(N)ncnc32)[C@H](O)[C@@H]1O", "endpoint result": "26.5%"}
{"compound": "C#CCSc1nnc(SC[C@H]2O[C@@H](n3cnc4c(N)ncnc43)[C@H](O)[C@@H]2O)s1", "endpoint result": "11%"}
{"compound": "COc1ccc2[nH]c(SC[C@H]3O[C@@H](n4cnc5c(N)ncnc54)[C@H](O)[C@@H]3O)nc2c1", "endpoint result": "2.5%"}
{"compound": "COc1ccc(SC[C@H]2O[C@@H](n3cnc4c(N)ncnc43)[C@H](O)[C@@H]2O)cc1OC", "endpoint result": "5%"}
{"compound": "Nc1ncnc2c1ncn2[C@@H]1O[C@H](CSc2cccc3ccccc23)[C@@H](O)[C@H]1O", "endpoint result": "5%"}
{"compound": "Nc1cccnc1SC[C@H]1O[C@@H](n2cnc3c(N)ncnc32)[C@H](O)[C@@H]1O", "endpoint result": "18%"}
{"compound": "Nc1ncnc2c1ncn2[C@@H]1O[C@H](CSc2cccc(O)c2)[C@@H](O)[C@H]1O", "endpoint result": "36%"}
{"compound": "Nc1ncnc2c1ncn2[C@@H]1O[C@H](CSc2ccccc2O)[C@@H](O)[C@H]1O", "endpoint result": "7%"}
{"compound": "Nc1nnc(SC[C@H]2O[C@@H](n3cnc4c(N)ncnc43)[C@H](O)[C@@H]2O)s1", "endpoint result": "34%"}
{"compound": "Nc1ncnc2c1ncn2[C@@H]1O[C@H](CSc2cc(Cl)ccc2Cl)[C@@H](O)[C@H]1O", "endpoint result": "5%"}
{"compound": "Cc1cc(C)cc(SC[C@H]2O[C@@H](n3cnc4c(N)ncnc43)[C@H](O)[C@@H]2O)c1", "endpoint result": "2%"}
{"compound": "Cc1cc(N)c(SC[C@H]2O[C@@H](n3cnc4c(N)ncnc43)[C@H](O)[C@@H]2O)cc1C", "endpoint result": "4%"}
{"compound": "Cc1cc(C)c(C#N)c(SC[C@H]2O[C@@H](n3cnc4c(N)ncnc43)[C@H](O)[C@@H]2O)n1", "endpoint result": "5%"}
{"compound": "Nc1ncnc2c1ncn2[C@@H]1O[C@H](CSCCc2c[nH]c3ccccc23)[C@@H](O)[C@H]1O", "endpoint result": "18%"}
{"compound": "CCc1ccccc1SC[C@H]1O[C@@H](n2cnc3c(N)ncnc32)[C@H](O)[C@@H]1O", "endpoint result": "6%"}
{"compound": "Nc1ncnc2c1ncn2[C@@H]1O[C@H](CSCCCO)[C@@H](O)[C@H]1O", "endpoint result": "32%"}
{"compound": "CC(SC[C@H]1O[C@@H](n2cnc3c(N)ncnc32)[C@H](O)[C@@H]1O)c1ccccc1 (some centres unmarked)", "endpoint result": "6%"}
{"compound": "Nc1ncnc2c1ncn2[C@@H]1O[C@H](CSc2nc3cnccc3[nH]2)[C@@H](O)[C@H]1O", "endpoint result": "49%"}
{"compound": "Nc1ncnc2c1ncn2[C@@H]1O[C@H](CSCC(F)(F)F)[C@@H](O)[C@H]1O", "endpoint result": "30%"}
{"compound": "Nc1ncnc2c1ncn2[C@@H]1O[C@H](CSc2nc[nH]n2)[C@@H](O)[C@H]1O", "endpoint result": "58%"}
{"compound": "CSc1ccc(SC[C@H]2O[C@@H](n3cnc4c(N)ncnc43)[C@H](O)[C@@H]2O)cc1", "endpoint result": "12%"}
{"compound": "Cc1ccc(SC[C@H]2O[C@@H](n3cnc4c(N)ncnc43)[C@H](O)[C@@H]2O)cc1C", "endpoint result": "2%"}
{"compound": "Nc1ncnc2c1ncn2[C@@H]1O[C@H](CSc2cccs2)[C@@H](O)[C@H]1O", "endpoint result": "36%"}

Just for reference, patent US20040043959A1 is where these values come from.
